# Test system: PPARg:RXRa IVT, anti-PPARg (NR concentration 270 nM, RXRa partner concentration 90 nM)
# protocolDetails: PBM binding z-score (relative to random genomic background probes); higher = stronger binding; sequences stand for … in GC…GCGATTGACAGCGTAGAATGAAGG
# if value of PBM binding z-score reaches 1, tag Met; if it stays below, tag Not met

1. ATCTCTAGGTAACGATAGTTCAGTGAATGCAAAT    Met
2. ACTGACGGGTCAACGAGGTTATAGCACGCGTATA    Met
3. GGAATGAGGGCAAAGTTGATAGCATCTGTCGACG    Met
4. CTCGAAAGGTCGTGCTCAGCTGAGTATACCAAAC    Met

-- ask Reported PBM binding z-score at or above 1? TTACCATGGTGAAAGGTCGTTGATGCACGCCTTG
-- reply Met

-- ask Then this sequence: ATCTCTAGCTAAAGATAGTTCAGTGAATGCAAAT
-- reply Not met

-- ask Then this sequence: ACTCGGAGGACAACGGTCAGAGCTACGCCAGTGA
-- reply Not met

-- ask Then this sequence: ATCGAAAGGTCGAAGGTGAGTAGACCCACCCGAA
-- reply Met

-- ask Then this sequence: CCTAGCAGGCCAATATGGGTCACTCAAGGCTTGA
-- reply Met

-- ask Then this sequence: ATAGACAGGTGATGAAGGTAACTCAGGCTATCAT
-- reply Not met

* * *

# System: PPARg DBDmut IVT, anti-PPARg (DBD mutation: PPARg1 K132A/R137A, NR concentration 270 nM)
# protocolDetails: PBM binding z-score (relative to random genomic background probes); higher = stronger binding; sequences stand for … in GC…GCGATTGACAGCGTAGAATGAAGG
Entries are sorted into classes by PBM binding z-score as follows: LOW (below -0.1), MID (-0.1 to below 0.7), HIGH (0.7 or more)

1) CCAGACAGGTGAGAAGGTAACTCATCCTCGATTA    MID
2) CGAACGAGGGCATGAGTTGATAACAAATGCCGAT    LOW
3) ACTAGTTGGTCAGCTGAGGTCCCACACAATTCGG    HIGH
4) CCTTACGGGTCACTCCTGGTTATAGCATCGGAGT    LOW
5) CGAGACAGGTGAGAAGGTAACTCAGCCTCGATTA    LOW

-- ask Form field 'band' for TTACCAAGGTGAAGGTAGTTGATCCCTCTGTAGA
-- reply MID

-- ask Then this sequence: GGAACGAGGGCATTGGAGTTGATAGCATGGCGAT
-- reply LOW

-- ask Then this sequence: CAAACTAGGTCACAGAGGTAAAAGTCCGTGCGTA
-- reply HIGH

-- ask Then this sequence: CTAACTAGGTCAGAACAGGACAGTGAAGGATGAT
-- reply HIGH

-- ask Then this sequence: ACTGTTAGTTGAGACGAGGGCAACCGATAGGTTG
-- reply HIGH

-- ask Then this sequence: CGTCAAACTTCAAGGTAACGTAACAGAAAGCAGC
-- reply HIGH

-- ask Then this sequence: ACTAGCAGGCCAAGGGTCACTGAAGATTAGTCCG
-- reply MID

-- ask Then this sequence: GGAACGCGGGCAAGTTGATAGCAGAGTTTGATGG
-- reply LOW

-- ask Then this sequence: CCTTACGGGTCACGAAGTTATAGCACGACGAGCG
-- reply MID

-- ask Then this sequence: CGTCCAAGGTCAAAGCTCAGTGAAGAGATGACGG
-- reply LOW

-- ask Then this sequence: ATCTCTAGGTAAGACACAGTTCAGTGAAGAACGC
-- reply HIGH

-- ask Then this sequence: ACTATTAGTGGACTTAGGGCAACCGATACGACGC
-- reply MID

-- ask Then this sequence: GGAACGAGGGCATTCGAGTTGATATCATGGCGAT
-- reply LOW

-- ask Then this sequence: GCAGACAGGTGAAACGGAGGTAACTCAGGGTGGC
-- reply LOW

-- ask Then this sequence: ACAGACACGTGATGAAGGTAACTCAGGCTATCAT
-- reply MID

-- ask Then this sequence: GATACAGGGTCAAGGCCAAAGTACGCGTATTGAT
-- reply HIGH

* * *

Quick reference for PBM binding z-score among some sequences
# System: FXR:RXRa (NR concentration 270 nM, RXRa partner concentration 90 nM)
# protocolDetails: PBM binding z-score (relative to random genomic background probes); higher = stronger binding; sequences stand for … in GC…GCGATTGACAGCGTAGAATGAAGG
Answer with the value's number alone.

Record excerpt, results attached:
1) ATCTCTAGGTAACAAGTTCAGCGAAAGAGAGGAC    0.684
2) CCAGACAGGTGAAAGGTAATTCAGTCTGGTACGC    0.605
3) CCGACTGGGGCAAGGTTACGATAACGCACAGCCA    0.216
4) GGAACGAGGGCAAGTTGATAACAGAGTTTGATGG    0.773
5) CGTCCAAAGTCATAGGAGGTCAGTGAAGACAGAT    2.25
6) TCATATAGGTAAAGGTGAAAGTTGAACGATATGA    1.54

-- ask Which value of PBM binding z-score has been reported for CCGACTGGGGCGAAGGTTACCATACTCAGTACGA in the records?
-- reply -0.11

* * *

# Tested on: PPARg:RXRa IVT, anti-PPARg (NR concentration 270 nM, RXRa partner concentration 90 nM)
# protocolDetails: PBM binding z-score (relative to random genomic background probes); higher = stronger binding; sequences stand for … in GC…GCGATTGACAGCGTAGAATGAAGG
measurementKind: PBM binding z-score
Answer with the value's number alone.

1) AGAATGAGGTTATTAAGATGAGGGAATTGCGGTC    1.97
2) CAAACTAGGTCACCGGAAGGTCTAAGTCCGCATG    9.1
3) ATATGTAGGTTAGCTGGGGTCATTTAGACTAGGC    6.32

-- ask GET /values?readout=PBM binding z-score&system=PPARg:RXRa IVT, anti-PPARg (NR concentration 270 nM, RXRa partner concentration 90 nM)&item= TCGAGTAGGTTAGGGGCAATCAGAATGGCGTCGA
-- reply 1.37

-- ask Then this sequence: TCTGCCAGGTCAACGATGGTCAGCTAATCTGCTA
-- reply 2.98

-- ask Then this sequence: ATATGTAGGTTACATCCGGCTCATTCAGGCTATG
-- reply 6.94

-- ask Then this sequence: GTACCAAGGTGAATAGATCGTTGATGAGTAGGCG
-- reply 1.74

-- ask Then this sequence: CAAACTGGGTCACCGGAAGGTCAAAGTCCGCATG
-- reply 8.83

-- ask Then this sequence: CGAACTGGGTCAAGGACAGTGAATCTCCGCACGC
-- reply 7.82

-- ask Then this sequence: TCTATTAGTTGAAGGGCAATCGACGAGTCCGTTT
-- reply 0.352

* * *

# Test system: VDR homodimer (NR concentration 270 nM)
# protocolDetails: PBM binding z-score (relative to random genomic background probes); higher = stronger binding; sequences stand for … in GC…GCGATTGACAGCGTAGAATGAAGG
Entries are sorted into classes by PBM binding z-score as follows: Low: < 0.1; Mid: ≥ 0.1 and < 2; High: ≥ 2

Below are worked cases with known answers.
1. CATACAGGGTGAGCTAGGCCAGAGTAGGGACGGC    Low
2. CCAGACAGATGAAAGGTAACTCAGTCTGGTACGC    Mid
3. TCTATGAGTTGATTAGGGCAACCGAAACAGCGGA    Mid
4. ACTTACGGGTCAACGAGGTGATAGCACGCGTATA    Mid
5. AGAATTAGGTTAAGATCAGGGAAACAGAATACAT    Mid

-- ask Form field 'band' for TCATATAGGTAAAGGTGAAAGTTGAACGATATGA
-- reply Mid

-- ask Then this sequence: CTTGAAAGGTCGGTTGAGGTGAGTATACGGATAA
-- reply Mid

* * *

# Tested on: RXRa DBDmut IVT, anti-RXR (DBD mutation: RXRa K156A/R161A, NR concentration 90 nM)
# protocolDetails: PBM binding z-score (relative to random genomic background probes); higher = stronger binding; sequences stand for … in GC…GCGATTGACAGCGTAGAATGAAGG
# if value of PBM binding z-score reaches 1, tag 1 (yes); if it stays below, tag 0 (no)

1) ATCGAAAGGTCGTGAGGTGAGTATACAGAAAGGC    1 (yes)

-- ask Reported PBM binding z-score at or above 1? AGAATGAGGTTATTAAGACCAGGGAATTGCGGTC
-- reply 1 (yes)

-- ask Then this sequence: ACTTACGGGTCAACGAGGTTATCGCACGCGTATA
-- reply 1 (yes)

-- ask Then this sequence: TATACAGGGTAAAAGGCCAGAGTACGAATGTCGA
-- reply 0 (no)

-- ask Then this sequence: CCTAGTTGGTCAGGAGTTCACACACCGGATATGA
-- reply 1 (yes)

-- ask Then this sequence: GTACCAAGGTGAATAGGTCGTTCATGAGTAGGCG
-- reply 0 (no)

-- ask Then this sequence: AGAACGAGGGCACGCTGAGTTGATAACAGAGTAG
-- reply 1 (yes)

-- ask Then this sequence: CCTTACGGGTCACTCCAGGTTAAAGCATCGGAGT
-- reply 1 (yes)

-- ask Then this sequence: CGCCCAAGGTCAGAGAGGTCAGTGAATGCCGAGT
-- reply 1 (yes)

-- ask Then this sequence: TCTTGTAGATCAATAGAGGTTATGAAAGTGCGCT
-- reply 1 (yes)

-- ask Then this sequence: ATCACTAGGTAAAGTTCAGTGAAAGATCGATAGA
-- reply 1 (yes)
